Source: patent US20230263822A1

- Experiment Notes: Body and organ weights of cynomolgus monkeys (Example 46)
- Type: in vivo
- Parameters: unit not given here
- Experimental Setup: day 55, after euthanasia
Strand notation (5' to 3'): a small letter for the sugar, then the base; units joined by * are phosphorothioate-linked, units joined directly phosphodiester-linked; [ ] holds rarer units or linkages, { } end groups; capitals alone tell only the bases. e = 2'-O-(2-methoxyethyl) (MOE); [5mC] = 5-methylcytosine; d = 2'-deoxy (DNA)
Observed Property: Spleen weight

Substance	Observed Property	Result
ISIS 449708: 3-8-3, 4-8-4, 2-10-2, 3-10-3 or 4-10-4 MOE microwalk gapmer (Table 46) (antisense eA*e[5mC]*eA*dG*dT*dT*dT*d[5mC]*dT*dG*dG*e[5mC]*eA*eG)	Spleen weight	0.19
ISIS 449707: 3-8-3, 4-8-4, 2-10-2, 3-10-3 or 4-10-4 MOE microwalk gapmer (Table 46) (antisense e[5mC]*eA*e[5mC]*eA*dG*dT*dT*dT*d[5mC]*dT*dG*dG*e[5mC]*eA*eG*eG)	Spleen weight	0.24

---

- System: Factor 11 protein
- Experiment Notes: Factor 11 protein in monkey plasma by sandwich ELISA (Example 45)
- Type: in vivo, cynomolgus monkeys
- Experimental Setup: day 36; escalating dose regimen; plasma ELISA
Observed Property: Inhibition of Factor 11 protein relative to the PBS control (%)

Substance	Measured Number
ISIS 417002: MOE gapmer, nucleobases 1275 to 1318 of SEQ ID NO: 1 (Table 8) (antisense GGTGCACAGTTTCTGGCAGG; MOE gapmer, wing and gap sizes not given here)	8
ISIS 416838: MOE gapmer, nucleobases 1018 to 1042 of SEQ ID NO: 1 (Table 6) (antisense GCAACCGGGATGATGAGTGC; MOE gapmer, wing and gap sizes not given here)	11
ISIS 416850: MOE gapmer, nucleobases 1275 to 1318 of SEQ ID NO: 1 (Table 8) (antisense TGCACAGTTTCTGGCAGGCC; MOE gapmer, wing and gap sizes not given here)	17
ISIS 416864: MOE gapmer, nucleobases 1275 to 1318 of SEQ ID NO: 1 (Table 8) (antisense GGCAGCGGACGGCATTGGTG; MOE gapmer, wing and gap sizes not given here)	9
ISIS 416858: MOE gapmer, nucleobases 1275 to 1318 of SEQ ID NO: 1 (Table 8) (antisense ACGGCATTGGTGCACAGTTT; MOE gapmer, wing and gap sizes not given here)	35

---

- Experimental Setup: mouse, in vivo, sc, 50 mg/kg
e = 2'-O-(2-methoxyethyl) (MOE); d = 2'-deoxy (DNA)
Observed Property: log10 of ALT (log10 of the value in IU/L)

Substance	Measured Number
ISIS 416857: MOE gapmer, nucleobases 1275 to 1318 of SEQ ID NO: 1 (Table 8) (antisense CGGCATTGGTGCACAGTTTC; MOE gapmer, wing and gap sizes not given here)	2.57
ISIS 413481: 5-10-5 MOE gapmer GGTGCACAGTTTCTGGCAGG (sugars from the 5' end e5 d10 e5, backbone and methylation of C not given here)	1.93
ISIS 416853: MOE gapmer, nucleobases 1275 to 1318 of SEQ ID NO: 1 (Table 8) (antisense TTGGTGCACAGTTTCTGGCA; MOE gapmer, wing and gap sizes not given here)	3.01
ISIS 416852: MOE gapmer, nucleobases 1275 to 1318 of SEQ ID NO: 1 (Table 8) (antisense TGGTGCACAGTTTCTGGCAG; MOE gapmer, wing and gap sizes not given here)	1.69
ISIS 416848: MOE gapmer, nucleobases 1275 to 1318 of SEQ ID NO: 1 (Table 8) (antisense CACAGTTTCTGGCAGGCCTC; MOE gapmer, wing and gap sizes not given here)	2.18
ISIS 416864: MOE gapmer, nucleobases 1275 to 1318 of SEQ ID NO: 1 (Table 8) (antisense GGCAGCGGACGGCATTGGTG; MOE gapmer, wing and gap sizes not given here)	1.56
ISIS 416858: MOE gapmer, nucleobases 1275 to 1318 of SEQ ID NO: 1 (Table 8) (antisense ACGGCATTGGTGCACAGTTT; MOE gapmer, wing and gap sizes not given here)	2.81

---

Reported values of Albumin for individual entries
- Experimental Setup: mouse, in vivo, sc, 50 mg/kg
e = 2'-O-(2-methoxyethyl) (MOE); d = 2'-deoxy (DNA)
Observed Property: Albumin

Substance	Observed Property	Measured Number
ISIS 445498: 5-8-5 or 6-8-6 MOE microwalk gapmer (Table 44) (antisense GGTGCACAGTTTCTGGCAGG; sugars from the 5' end e6 d8 e6, backbone and methylation of C not given here)	Albumin	3.4
ISIS 445530: 5-8-5 or 6-8-6 MOE microwalk gapmer (Table 44) (antisense GCATTGGTGCACAGTTTC; sugars from the 5' end e5 d8 e5, backbone and methylation of C not given here)	Albumin	3.2

---

- System: fibrinogen
- Experiment Notes: Fibrinogen assay (Example 45)
- Type: in vivo, cynomolgus monkeys
- Experimental Setup: plasma; day 57; escalating dose regimen
- Protocol: Groups, each consisting of two male and three female monkeys, were injected subcutaneously with ISIS 416838, ISIS 416850, ISIS 416858, ISIS 416864, or ISIS 417002 in escalating doses. […] Body weights were measured weekly. […] Nine parts of fresh monkey plasma was collected into one part of trisodium citrate. The samples were evaluated of fibrinogen content using an ACL 9000 coagulation instrument (Instrumentation Laboratory, Italy). […]
Each entry below carries its recorded fibrinogen levels.
Observed Property: fibrinogen levels (mg/dL)

Substance	Measured Number
ISIS 416838: MOE gapmer, nucleobases 1018 to 1042 of SEQ ID NO: 1 (Table 6) (antisense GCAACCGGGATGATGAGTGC; MOE gapmer, wing and gap sizes not given here)	190
ISIS 416850: MOE gapmer, nucleobases 1275 to 1318 of SEQ ID NO: 1 (Table 8) (antisense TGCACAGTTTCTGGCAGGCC; MOE gapmer, wing and gap sizes not given here)	186
ISIS 416864: MOE gapmer, nucleobases 1275 to 1318 of SEQ ID NO: 1 (Table 8) (antisense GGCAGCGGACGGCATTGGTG; MOE gapmer, wing and gap sizes not given here)	200
ISIS 417002: MOE gapmer, nucleobases 1275 to 1318 of SEQ ID NO: 1 (Table 8) (antisense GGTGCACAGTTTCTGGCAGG; MOE gapmer, wing and gap sizes not given here)	201
ISIS 416858: MOE gapmer, nucleobases 1275 to 1318 of SEQ ID NO: 1 (Table 8) (antisense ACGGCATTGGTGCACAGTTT; MOE gapmer, wing and gap sizes not given here)	225

---

- System: human Factor 11 mRNA
- Experiment Notes: Antisense inhibition of human Factor 11 in HepG2 cells, lipofectin, 75 nM (Example 1)
- Format: cell-based
- Experimental Setup: 75 nM antisense oligonucleotide, ~24 h, relative to untreated control cells, gapmers targeted to SEQ ID NO: 2
Strand notation (5' to 3'): a small letter for the sugar, then the base; units joined by * are phosphorothioate-linked, units joined directly phosphodiester-linked; [ ] holds rarer units or linkages, { } end groups; capitals alone tell only the bases. e = 2'-O-(2-methoxyethyl) (MOE); [5mC] = 5-methylcytosine; d = 2'-deoxy (DNA)
Decide using % inhibition: a value greater than or equal to 50% is satisfied, a smaller one is not satisfied.

Substance	Tested On	Discrete Label
413501 (antisense eT*eT*eA*eG*eT*dT*dT*dA*d[5mC]*dT*dG*dA*d[5mC]*dA*d[5mC]*eT*eA*eA*eG*eA) [compound 413501]	human Factor 11 mRNA	not satisfied
413504 (antisense eG*eG*e[5mC]*eT*eT*dG*dT*dG*dT*dG*dT*dG*dG*dT*d[5mC]*eA*eA*eT*eA*eT) [compound 413504]	human Factor 11 mRNA	satisfied
413500 (antisense eG*eT*eG*eA*eG*dA*d[5mC]*dA*dA*dA*dT*d[5mC]*dA*dA*dG*eA*e[5mC]*eT*eT*e[5mC]) [compound 413500]	human Factor 11 mRNA	not satisfied
413507 (antisense eT*eT*eT*e[5mC]*eA*dA*dG*d[5mC]*dT*d[5mC]*dA*dG*dG*dA*dT*eG*eG*eG*eA*eA) [compound 413507]	human Factor 11 mRNA	satisfied
413529 (antisense eT*eG*eT*eG*eT*dG*dG*dG*dT*d[5mC]*d[5mC]*dT*dG*dA*dA*eA*eT*eT*e[5mC]*eT) [compound 413529]	human Factor 11 mRNA	satisfied
413533 (antisense eA*eT*e[5mC]*e[5mC]*eA*dG*dT*dT*d[5mC]*dA*d[5mC]*d[5mC]*dA*dT*dT*eG*eG*eA*eG*eA) [compound 413533]	human Factor 11 mRNA	not satisfied
413502 (antisense e[5mC]*eT*eG*e[5mC]*eT*dT*dT*dA*dT*dG*dA*dA*dA*dA*dA*e[5mC]*e[5mC]*eA*eA*e[5mC]) [compound 413502]	human Factor 11 mRNA	not satisfied
413511 (antisense eT*eG*e[5mC]*e[5mC]*eA*dA*dT*dT*dT*dA*dA*dA*dA*dG*dT*eG*eT*eA*eG*e[5mC]) [compound 413511]	human Factor 11 mRNA	not satisfied
413514 (antisense eT*eT*eT*eA*e[5mC]*dT*dA*dT*dG*dA*dA*dA*dA*dT*d[5mC]*eT*eA*eA*eA*eT) [compound 413514]	human Factor 11 mRNA	not satisfied
413509 (antisense eT*e[5mC]*eA*eG*eG*dA*d[5mC]*dA*d[5mC]*dA*dA*dG*dT*dA*dA*eA*e[5mC]*e[5mC]*eT*eG) [compound 413509]	human Factor 11 mRNA	satisfied
413524 (antisense eG*eA*e[5mC]*eA*eT*dT*dA*dT*dA*d[5mC]*dT*d[5mC]*dA*d[5mC]*d[5mC]*eA*eT*eT*eA*eT) [compound 413524]	human Factor 11 mRNA	not satisfied
